Target: UniProtKB O70526
Sequence (whole entry): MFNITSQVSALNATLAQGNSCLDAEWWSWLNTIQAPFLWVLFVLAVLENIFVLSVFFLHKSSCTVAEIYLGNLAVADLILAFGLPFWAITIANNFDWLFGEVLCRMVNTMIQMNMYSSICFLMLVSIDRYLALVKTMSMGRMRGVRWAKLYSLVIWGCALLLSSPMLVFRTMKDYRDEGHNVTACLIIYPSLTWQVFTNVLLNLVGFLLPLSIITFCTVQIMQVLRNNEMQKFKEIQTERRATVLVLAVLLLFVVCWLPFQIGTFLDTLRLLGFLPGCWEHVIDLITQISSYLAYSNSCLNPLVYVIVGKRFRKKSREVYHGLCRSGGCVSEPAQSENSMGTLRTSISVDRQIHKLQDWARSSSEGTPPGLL
Assay: Effect on BK-induced hypotension in Dunkin Hartley guinea pig at 300 nmol/kg, it
Type: functional
MEASURED PARAMETER: Activity (%)

Cc1cc(C)c2cccc(OCc3c(Cl)ccc(S(=O)(=O)NC4(C(=O)N5CCN(C(=N)NCCC[N+](C)(C)C)CC5)CCCC4)c3Cl)c2n1; 87

[P] Cc1cc(C)c2cccc(OCc3c(Cl)ccc(S(=O)(=O)N4CCC[C@@H]4C(=O)NCCCNC(=O)c4ccc(C(=N)N)cc4)c3Cl)c2n1
[Q] Cc1cc(C)c2cccc(OCc3c(Cl)ccc(S(=O)(=O)NC4(C(=O)N5CCN(C(=O)[C@@H](N)CCCCN(C)C)CC5)CCCC4)c3Cl)c2n1
Hi there! Just curious which has the higher Activity between P and Q . Use the label to indicate which entry you chose. P
(P: 100%, Q: 67%)

---

Target: B2 bradykinin receptor (Cavia porcellus)
Assay: Effect on BK-induced hypotension in Dunkin Hartley guinea pig at 300 nmol/kg, it
Assay type: functional
MEASURED PARAMETER: Activity (%)

Cc1cc(C)c2cccc(OCc3c(Cl)ccc(S(=O)(=O)NC(C)(C)C(=O)N4CCN(C(=O)[C@@H](N)CCCCNC(=N)N)CC4)c3Cl)c2n1; 78
Cc1cc(C)c2cccc(OCc3c(Cl)ccc(S(=O)(=O)NC(C)(C)C(=O)N4CCN(C(=O)[C@@H](N)CCCN(C)C)CC4)c3Cl)c2n1; 79
Cc1cc(C)c2cccc(OCc3c(Cl)ccc(S(=O)(=O)NC4(C(=O)N5CCN(C(=N)NCCCN(C)C)CC5)CCCC4)c3Cl)c2n1; 69
Cc1cc(C)c2cccc(OCc3c(Cl)ccc(S(=O)(=O)NC(C)(C)C(=O)N4CCN(C(=O)C[C@@H](N)CCCN(C)C)CC4)c3Cl)c2n1; 63
Cc1cc(C)c2cccc(OCc3c(Cl)ccc(S(=O)(=O)NC4(C(=O)N5CCN(C(=O)[C@@H](N)CCCCNC(=N)N)CC5)CCCC4)c3Cl)c2n1; 75
Cc1cc(C)c2cccc(OCc3c(Cl)ccc(S(=O)(=O)NC4(C(=O)N5CCN(C(=O)C[C@@H](N)CCCN(C)C)CC5)CCCC4)c3Cl)c2n1; 51
Cc1cc(C)c2cccc(OCc3c(Cl)ccc(S(=O)(=O)NC(C)(C)C(=O)N4CCN(C(=O)[C@@H](N)CCCCN(C)C)CC4)c3Cl)c2n1; 69

---

Target: UniProtKB O70526
Test: Effect on BK-induced hypotension in Dunkin Hartley guinea pig at 100 nmol/kg, it
Format: functional
MEASURED PARAMETER: Activity (%)

Here is how some molecules turned out for Activity.
Cc1cc(C)c2cccc(OCc3c(Cl)ccc(S(=O)(=O)NC4(C(=O)N5CCN(C(=O)[C@@H](N)CCC[N+](C)(C)C)CC5)CCCC4)c3Cl)c2n1; 100
Cc1cc(C)c2cccc(OCc3c(Cl)ccc(S(=O)(=O)NC4(C(=O)N5CCN(C(=O)C[N+](C)(C)C)CC5)CCCC4)c3Cl)c2n1; 91
Cc1cc(C)c2cccc(OCc3c(Cl)ccc(S(=O)(=O)NC4(C(=O)N5CCN(C(=O)[C@H](CCCCNC(=N)N)[N+](C)(C)C)CC5)CCCC4)c3Cl)c2n1; 90
Cc1cc(C)c2cccc(OCc3c(Cl)ccc(S(=O)(=O)NC4(C(=O)N5CCN(C(=O)C[C@@H](N)CCCNC(=N)N)CC5)CCCC4)c3Cl)c2n1; 100

[I] Cc1cc(C)c2cccc(OCc3c(Cl)ccc(S(=O)(=O)NC4(C(=O)N5CCN(C(=O)C[C@H](CCCN)[N+](C)(C)C)CC5)CCCC4)c3Cl)c2n1
[II] Cc1cc(C)c2cccc(OCc3c(Cl)ccc(S(=O)(=O)NC4(C(=O)N5CCN(C(=O)[C@@H](N)CCC[N+](C)(C)C)CC5)CCOCC4)c3Cl)c2n1
// max by Activity over [ I , II ] Please identify the chosen entry by its label. I
(I: 94%, II: 60%)
